Test: NCI Yeast Anticancer Drug Screen. Data for the sgs1 mgt1 strain (AID 161);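 also: 0% = growth of cultures given vehicle only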
Settings: S. cerevisiae sgs1 mgt1 strain, at 50.0 µM, hits give high values
Experimental: Growth inhibition of yeast strains with defined genetic alterations is measured as a screen for potential anti-cancer activity. Selected strains with alterations in DNA damage repair or cell cycle control were exposed to compounds and growth inhibition was measured relative to vehicle treated controls. The strain used in this assay is sgs1 mgt1
Compounds without any hit were thinned out: in the full panel of roughly 79,000, 15% have a hit.
measured.endpoint: growth inhibition (%)
The figure you give is taken to be in %; do not add the unit.

Ask: Entry under review: COc1ccc2c(c1)CCC(N1CCCC(=O)C1)C2 (stereo not given) . Reported growth inhibition?
Reply: 66

Ask: Now consider `CN1C2CCCC1CC(=O)C2` .
Reply: -19.4

Ask: Now consider COc1cc2c(cc1OC)[N+]1(C)CCC3OCCC4C[N+]5(C)CCC26C5CC4C3C61 (stereo not given) .
Reply: 2.75

Ask: Now consider `CNC(=O)Oc1ccccc1C(N)=O` .
Reply: -14.8

Ask: Now consider CC(CCc1ccccc1)NC(C)C(O)c1ccc(O)cc1 (stereo not given) .
Reply: 52.2

Ask: Now consider `CCCCOP(=O)(CCCC)OCCCC.CCCCOP(=O)(CCCC)OCCCC.CCCCOP(=O)(CCCC)OCCCC.CCCCOP(=O)(CCCC)OCCCC.O.O.[Co+2].[O-][Cl+3]([O-])([O-])O` .
Reply: 7.35

Ask: Now consider CC(C)C1CN1CC(O)Cn1ccnc1[N+](=O)[O-] (stereo not given) .
Reply: -19.1

Ask: Now consider `Nc1ccncc1` .
Reply: 10

Ask: Now consider `CC(C)CCC1(CC[N+](C)(C)C)C(=O)NC(=O)NC1=O` .
Reply: 6.15

Ask: Now consider `Nc1nc(N)[nH]c(=O)n1` .
Reply: -39

Ask: Now consider C=C1C(C)C2C(Cc3ccccc3)NC(=O)C23C(OC(C)=O)/C=C/C(C)(O)CC(C)C/C=C/C3C1O (stereo not given) .
Reply: 91.5

Ask: Now consider `CCOC(=O)Cc1ccccc1` .
Reply: -1.95

Ask: Now consider CN1CN(c2ccccc2)C2(CCN(CC(C)(c3ccc(F)cc3)C3OCCCO3)CC2)C1=O (stereo not given) .
Reply: -21.9

Ask: Now consider `COC(=O)[C@]1(C)CCC[C@]2(C)[C@H]3CC4OO[C@@]3(CC[C@H]21)[C@H]1O[C@@]41C(C)C` .
Reply: 93.7

Ask: Now consider `CCCCCCCCCCCCCC(=O)[O][Hg][c]1ccccc1` .
Reply: 99.6

Ask: Now consider `CCOC(=O)C(Br)Br` .
Reply: -13.9

Ask: Now consider `Nc1cc(N)nc(N)n1` .
Reply: 1.35

Ask: Now consider `CC(=O)[O-].Cn1ccnc1CNCc1nccn1C.[Cu+2].[O-][Cl+3]([O-])([O-])[O-]` .
Reply: 3.3

Ask: Now consider CC(C)c1cc2c(cc1O)C1(C)CCCC(C)(C)C1CC2=O (stereo not given) .
Reply: 19.9

Ask: Now consider `O=CC=O` .
Reply: 24.4

Ask: Now consider CCOP(=O)(OCC)C1CC(C(C)C)CC=C1C (stereo not given) .
Reply: -2.15

Ask: Now consider `NCCN.O=N[O-].O=N[O-].O=N[O-].O=N[O-].[Co+3].[K+]` .
Reply: 14.4

Ask: Now consider `Cc1cccc(OCC2=NCCN2)c1C` .
Reply: -8.45

Ask: Now consider CCCOC(=O)c1cncn1C(C)c1ccccc1 (stereo not given) .
Reply: 37.5

Ask: Now consider `NC(=O)c1ccc(NN=O)nc1` .
Reply: 1.1
